Biological target: T1, huTIGIT (PL44403) (human, UniProt Q495A1 22-141)
T1 construct: Soluble protein; also called Human TIGIT (Octet analyte, mono-Fc tag)
T1 sequence: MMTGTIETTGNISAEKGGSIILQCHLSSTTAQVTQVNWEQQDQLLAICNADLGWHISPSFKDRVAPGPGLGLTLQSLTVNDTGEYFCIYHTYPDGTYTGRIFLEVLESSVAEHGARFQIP
Experiment: Octet, antibody on anti-huIgG Fc capture tips, huTIGIT as analyte
Kd values by entry

The cases that follow already have their Kd on record.
Inquiry: # lookup: Kd of 28B8 (antibody, V domains shown, Fully human XenoMouse antibody, tested as hybridoma supernatant or purified mAb) VH: QVQLQESGPGLVKPSETLFLTCTVSGGSVTNYYWSWIRQPAGKGLEWIGRIYTSGSTYYNPSLKSRVTMSLDTSKNQFSLRLSSVTAADTAVYYCAREGFTMVRGVMGAFDIWGQGTMVTVSS VL: DIQMTQSPSSLSASVGDRVTITCRASQSIRRYLNWYQQIPGKAPKFLIYDASSLQSGVPSRFSGSGSGTDFTLTISSLQPEDFATYYCQQSYSTPPTFGQGTKVEIKR
Reply text: < 0.1 nM

Inquiry: # lookup: Kd of 58A7 (antibody, V domains shown, Tested as hybridoma supernatant or purified mAb; also called 48B7) VH: QVQLQESGPGLVKPSQTLSLTCTVSGGSISSGGYYWNWIRQHPGKGLEWIGYIYYSGSTFYNPSLKSRVIISVDTSKNQFSLKLSSVTAADTAVYYCARAPRYNWNYGWFDPWGQGTLVTVSS VL: EIVLTQSPGTLSLSPGERATLSCRASQNVSSTYLAWYQQKPGQAPRLLFYGASSRATGIPDRFSRSGSGTDFTLTISRLEPEDFAVYYCQQYDVSPWTFGQGTKVEIK
Reply text: < 0.1 nM

Inquiry: # lookup: Kd of 11A3 (antibody, V domains shown, Fully human XenoMouse antibody, tested as hybridoma supernatant or purified mAb) VH: QVQLVQSGAEVKKPGASVKVSCKASGYTFTSYYIHWVRQAPGQGLEWMGIINPSGGRTSYAQMFQGRVTLTRDTSTNTVYMELSSLRSEDTAVFYCAKDREEQWPVGGFDYWGQGTLVTVSS VL: DIQMTQSPSSLSASVGDRVTITCRASQNIRRYLNWYQQKPGKAPELLIYSASNLQNGVPSRFSGSGSGTDFTLTISSLQPEDFATYYCQQSYIIPPTFGQGTKVEIRR
Reply text: < 0.1 nM

Inquiry: # lookup: Kd of 4G10 (antibody, V domains shown, Fully human XenoMouse antibody, tested as hybridoma supernatant or purified mAb) VH: QVQLQESGPGLVNPSQTLSLTCIVSGGSIRSGDYYWSWIRQHPGKGLEWIGYIYYSGGTYYNPSLKSRVIISVDTTKNQFSLKLSSMTAADTAVYYCARGSIAARSGYFYFSGLDVWGQGPTVTVSS VL: EIVLTQTPLSLSVTPGQPASISCKSSQSLLPSDGKTYLSWYLQKPGLPPQVLIYEVSNRFSGVPDRFSGSGSGTDFTLKISRVEAEDVGVYYCMQSIQLPLTFGGGTKVEIKR
Reply text: < 0.2 nM

Now take the following binder into account.
Inquiry: # lookup: Kd of 39D2 (antibody, V domains shown, Fully human XenoMouse antibody, tested as hybridoma supernatant or purified mAb) VH: QVQLVQSGAEVKKPGASVKVSCKASGYTFTGYYIHWVRQAPGQGLEWMGWISPTSGATGYAQNFQGRVTMTRDTSITTAYMELSRLRSDDTAVYYCARDSNSVLYYYGMDVWGQGTTVTVSS VL: DIEMTQAPSSLSASVGDRVTITCRASQTIRRYLNWYQQKPGKAPKLLIYAASSLQNGVPSRFSGSVSGTDFTLTISSLQPEDFATYYCQQSYSTPLTFGGGTKVGIRR
Reply text: < 0.1 nM
